# assayMethodText: Aqueous solubility of the compound in phosphate-buffered saline at pH 7.2 after 1 to 24 hrs
# Format: physicochemical
This listing pairs compounds with measured solubility.

| smi | solubility |
| --- | --- |
| O=C(c1ccc(-c2cccc(NS(=O)(=O)c3ccccc3OC(F)(F)F)c2)s1)c1cc(F)c(F)c(O)c1F | 50 to 100 µM |
| O=C(c1ccc(-c2ccc3[nH]ccc3c2)s1)c1cc(F)c(F)c(O)c1F | 50 to 100 µM |
| Cc1cc(-c2ccc(C(=O)c3cc(F)c(F)c(O)c3F)s2)cc(C)c1O | > 200 µM |
| COc1c(Cl)cc(-c2ccc(C(=O)c3cc(F)c(F)c(O)c3F)s2)cc1Cl | > 200 µM |
| O=C(c1ccc(-c2cccc3[nH]ccc23)s1)c1cc(F)c(F)c(O)c1F | 50 to 100 µM |

====

# targetDesc: CYP2C19 (Homo sapiens, UniProt P33261)
# Sequence (P33261 whole entry): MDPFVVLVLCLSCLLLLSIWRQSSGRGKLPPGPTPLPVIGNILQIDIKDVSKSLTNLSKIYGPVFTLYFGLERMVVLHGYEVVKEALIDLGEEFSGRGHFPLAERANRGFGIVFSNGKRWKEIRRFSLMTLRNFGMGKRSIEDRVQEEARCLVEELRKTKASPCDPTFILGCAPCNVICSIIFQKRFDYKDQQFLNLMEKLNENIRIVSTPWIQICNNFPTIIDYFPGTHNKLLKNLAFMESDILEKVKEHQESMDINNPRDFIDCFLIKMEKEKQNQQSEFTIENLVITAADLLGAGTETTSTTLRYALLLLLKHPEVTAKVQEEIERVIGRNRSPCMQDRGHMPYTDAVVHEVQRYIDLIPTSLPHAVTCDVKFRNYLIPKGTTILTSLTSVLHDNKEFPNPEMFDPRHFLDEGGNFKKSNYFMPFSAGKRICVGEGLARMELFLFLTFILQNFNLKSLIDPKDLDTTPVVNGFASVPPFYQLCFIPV
# assayMethodText: Inhibition of recombinant human hepatic […] expressed in baculosomes expression system at 1.2 uM relative to control
# Format: ADME
quantityMeasured: inhibition at 1.2 µM (%)

| smi | quantityMeasured | observedValue |
| --- | --- | --- |
| O=C(c1ccc(-c2cccc3[nH]ccc23)s1)c1cc(F)c(F)c(O)c1F | inhibition at 1.2 µM | 22 |

====

# assayMethodText: Half life in mouse liver S9 fraction at 1 uM in presence of NADPH regenerating system and UDPGA by L C-MS/MS analysis
# Assay type: ADME, subcellular
This listing pairs compounds with measured half-life at 1 µM.

| smi | measurementUnit | boundOperator | half-life at 1 µM |
| --- | --- | --- | --- |
| O=C(c1ccc(-c2cccc(NS(=O)(=O)c3ccccc3OC(F)(F)F)c2)s1)c1cc(F)c(F)c(O)c1F | min | = | 46 |
| COc1c(Cl)cc(-c2ccc(C(=O)c3cc(F)c(F)c(O)c3F)s2)cc1Cl | min | = | 70 |
| Cc1cc(-c2ccc(C(=O)c3cc(F)c(F)c(O)c3F)s2)cc(C)c1O | min | = | 18 |
| O=C(c1ccc(-c2cccc3[nH]ccc23)s1)c1cc(F)c(F)c(O)c1F | min | > | 60 |
| O=C(c1ccc(-c2ccc3[nH]ccc3c2)s1)c1cc(F)c(F)c(O)c1F | min | = | 49 |

====

This listing pairs compounds with measured inhibition.
# targetDesc: 17-beta-hydroxysteroid dehydrogenase type 1 (Mus musculus)
# Sequence (whole entry): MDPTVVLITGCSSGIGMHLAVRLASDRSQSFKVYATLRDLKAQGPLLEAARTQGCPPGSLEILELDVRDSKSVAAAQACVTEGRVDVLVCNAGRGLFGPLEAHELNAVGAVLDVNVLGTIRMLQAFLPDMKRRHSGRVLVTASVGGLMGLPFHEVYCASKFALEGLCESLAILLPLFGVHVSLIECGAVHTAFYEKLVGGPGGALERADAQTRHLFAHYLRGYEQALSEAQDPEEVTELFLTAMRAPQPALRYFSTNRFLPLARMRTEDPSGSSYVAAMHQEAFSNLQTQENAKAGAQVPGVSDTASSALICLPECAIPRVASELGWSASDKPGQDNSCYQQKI
# measurementConditions: at 1000 nM
# Description: Inhibition of recombinant mouse 17beta-HSD1 at 1000 nM using [3H]-E1 as substrate after 10 mins in presence of NADPH by radio-flow detector based analysis relative to control

| smi | targetDesc | measurementUnit | inhibition |
| --- | --- | --- | --- |
| O=C(c1ccc(-c2ccc3cc[nH]c3c2)s1)c1cc(F)c(F)c(O)c1F | 17-beta-hydroxysteroid dehydrogenase type 1 (Mus musculus) | % | 35 |
| Nc1ccccc1-c1ccc(C(=O)c2cc(F)c(F)c(O)c2F)s1 | 17-beta-hydroxysteroid dehydrogenase type 1 (Mus musculus) | % | 19 |
| Nc1cc(-c2ccc(C(=O)c3cc(F)c(F)c(O)c3F)s2)cc(F)c1F | 17-beta-hydroxysteroid dehydrogenase type 1 (Mus musculus) | % | 19 |
| O=C(c1ccc(-c2cccc3[nH]ccc23)s1)c1cc(F)c(F)c(O)c1F | 17-beta-hydroxysteroid dehydrogenase type 1 (Mus musculus) | % | 42 |
| O=C(c1ccc(-c2ccc3cccnc3c2)s1)c1cc(F)c(F)c(O)c1F | 17-beta-hydroxysteroid dehydrogenase type 1 (Mus musculus) | % | 33 |
| COc1ccc(-c2ccc(C(=O)c3cc(F)c(F)c(O)c3F)s2)cc1 | 17-beta-hydroxysteroid dehydrogenase type 1 (Mus musculus) | % | 33 |
| Cc1c(N)cccc1-c1ccc(C(=O)c2cc(F)c(F)c(O)c2F)s1 | 17-beta-hydroxysteroid dehydrogenase type 1 (Mus musculus) | % | 24 |
| Cc1cc(-c2ccc(C(=O)c3cc(F)c(F)c(O)c3F)s2)cc(C)c1O | 17-beta-hydroxysteroid dehydrogenase type 1 (Mus musculus) | % | 58.8 |

====

This listing pairs compounds with measured inhibition.
# targetDesc: UniProtKB P51658
# Sequence (P51658 whole entry): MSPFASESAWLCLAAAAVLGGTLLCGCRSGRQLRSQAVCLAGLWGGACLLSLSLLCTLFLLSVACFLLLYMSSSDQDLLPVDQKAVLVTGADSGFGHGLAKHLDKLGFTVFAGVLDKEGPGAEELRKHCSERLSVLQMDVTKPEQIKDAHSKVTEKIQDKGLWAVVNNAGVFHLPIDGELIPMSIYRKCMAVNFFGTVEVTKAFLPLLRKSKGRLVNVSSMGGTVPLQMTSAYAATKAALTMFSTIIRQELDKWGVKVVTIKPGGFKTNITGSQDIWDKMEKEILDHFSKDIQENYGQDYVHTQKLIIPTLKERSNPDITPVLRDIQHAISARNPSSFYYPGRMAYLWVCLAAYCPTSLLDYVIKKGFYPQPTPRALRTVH
# measurementConditions: at 50 nM
# Description: Inhibition of mouse microsomal fraction 17beta-HSD2 at 50 nM using [3H]-E2 as substrate after 20 mins in presence of NAD+ by radio-flow detector based analysis relative to control
quantityMeasured: inhibition

| smi | observedValue |
| --- | --- |
| COc1ccccc1-c1ccc(C(=O)c2cc(F)c(F)c(O)c2F)s1 | 33% |
| Nc1cc(-c2ccc(C(=O)c3cc(F)c(F)c(O)c3F)s2)ccc1F | 37% |
| COc1ccc(-c2ccc(C(=O)c3cc(F)c(F)c(O)c3F)s2)cc1 | 42% |
